I'd appreciate it if you could supply inhibition values for the items below.
- testSystem: DNA ligase 1 (Homo sapiens, UniProt P18858)
- Sequence (P18858 whole entry): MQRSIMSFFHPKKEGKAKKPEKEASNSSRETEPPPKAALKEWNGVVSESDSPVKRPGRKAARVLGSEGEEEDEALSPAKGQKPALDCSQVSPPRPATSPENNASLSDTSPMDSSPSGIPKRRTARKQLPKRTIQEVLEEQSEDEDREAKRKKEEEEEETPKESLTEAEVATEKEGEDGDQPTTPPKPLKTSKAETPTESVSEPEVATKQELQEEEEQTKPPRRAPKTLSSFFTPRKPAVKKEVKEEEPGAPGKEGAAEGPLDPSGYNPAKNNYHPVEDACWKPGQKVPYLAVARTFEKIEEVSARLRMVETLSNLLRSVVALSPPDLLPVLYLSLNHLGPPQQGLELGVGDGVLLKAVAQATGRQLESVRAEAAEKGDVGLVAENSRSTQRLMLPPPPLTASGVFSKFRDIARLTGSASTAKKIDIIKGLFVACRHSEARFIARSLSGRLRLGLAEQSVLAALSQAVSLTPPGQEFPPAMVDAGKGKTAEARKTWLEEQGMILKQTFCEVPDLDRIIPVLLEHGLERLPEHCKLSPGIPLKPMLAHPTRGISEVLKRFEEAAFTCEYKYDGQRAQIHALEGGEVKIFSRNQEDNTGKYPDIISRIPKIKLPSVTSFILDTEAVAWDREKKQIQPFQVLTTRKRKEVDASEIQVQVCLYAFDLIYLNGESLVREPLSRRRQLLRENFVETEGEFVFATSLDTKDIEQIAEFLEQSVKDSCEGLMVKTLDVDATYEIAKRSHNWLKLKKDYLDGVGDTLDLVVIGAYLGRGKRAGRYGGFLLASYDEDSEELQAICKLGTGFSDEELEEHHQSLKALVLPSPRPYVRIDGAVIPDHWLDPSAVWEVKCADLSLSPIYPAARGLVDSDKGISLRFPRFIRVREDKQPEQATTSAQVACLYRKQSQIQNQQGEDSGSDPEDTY
- assayName: Inhibition of human DNA ligase 1 expressed in Escherichia coli BL21(DE3)RP cells assessed as reduction in fluorescently labelled ds nicked DNA substrate ligation at 100 uM after 30 mins by urea gel based imaging method relative to control
Give bare numbers, in %.

Answered examples (8):
[[record]]
molecule = "CCOC(=O)C1=C(C)NC(=O)NC1c1cc(C)c(O)c(/C=N/NC(=S)NC)c1 (stereo unspecified)"
scaleunit = "%"
observedvalue = 80.4

[[record]]
molecule = "CCOC(=O)C1=C(C)NC(=O)NC1c1cc(C=O)c(O)c(C(C)(C)C)c1 (stereo unspecified)"
scaleunit = "%"
observedvalue = 73.6

[[record]]
molecule = "CCOC(=O)C1=C(C)NC(=O)NC1c1cc(/C=N/NC(=S)NC)c(O)c(C(C)(C)C)c1 (stereo unspecified)"
scaleunit = "%"
observedvalue = 80.8

[[record]]
molecule = "CCOC(=O)C1=C(C)NC(=O)NC1c1cc(/C=N/NC(N)=S)c(O)c(C(C)(C)C)c1 (stereo unspecified)"
scaleunit = "%"
observedvalue = 80.4

[[record]]
molecule = "CCOC(=O)C1=C(C)NC(=O)NC1c1cc(C)c(O)c(C=O)c1 (stereo unspecified)"
scaleunit = "%"
observedvalue = 76.9

[[record]]
molecule = "CCOC(=O)C1=C(C)NC(=O)NC1c1cc(/C=N/NC(=O)Nc2cccc(OC)c2)c(O)c(C(C)(C)C)c1 (stereo unspecified)"
scaleunit = "%"
observedvalue = 82.7

[[record]]
molecule = "CCOC(=O)C1=C(C)NC(=O)NC1c1cc(/C=N/NC(=S)Nc2ccccc2)c(O)c(C(C)(C)C)c1 (stereo unspecified)"
scaleunit = "%"
observedvalue = 88.1

[[record]]
molecule = "CCOC(=O)C1=C(C)NC(=S)NC1c1cc(/C=N/NC(=O)Nc2ccc(Cl)cc2)c(O)c(C(C)(C)C)c1 (stereo unspecified)"
scaleunit = "%"
observedvalue = 77.1


Quick one: give me inhibition for each item below, same order please.
1. CCOC(=O)C1=C(C)NC(=S)NC1c1cc(C)c(O)c(/C=N/NC(=O)Nc2ccc(Cl)cc2)c1 (stereo unspecified)
2. CCOC(=O)C1=C(C)NC(=S)NC1c1cc(/C=N/NC(=O)Nc2ccccc2)c(O)c(C(C)(C)C)c1 (stereo unspecified)
3. CCOC(=O)C1=C(C)NC(=O)NC1c1cc(/C=N/NC(=S)Nc2ccc(Cl)cc2)c(O)c(C(C)(C)C)c1 (stereo unspecified)

[86.7, 80.9, 80.9]
